Origin of measurements: the supplement of paper PMC10307832

# Tested on: NCI-H1563
# EXPERIMENT: relative viability (nuclei count vs DMSO), 5 days (fraction); higher = more cells survive
# APPLIED_CONDITIONS: first compound 0.1581 µM
MEASURED_PROPERTY: relative viability
Give bare numbers.

Example results:
Recorded relative viability of Nc1ccn([C@@H]2O[C@H](CO)[C@@H](O)[C@@H]2O)c(=O)n1 [Cytarabine] + CCNC(=O)c1noc(-c2cc(C(C)C)c(O)cc2O)c1-c1ccc(CN2CCOCC2)cc1 [Luminespib] (partner 0.01 µM) , please. 0.407

Entry to check: COc1cc2nccc(Oc3ccc(NC(=O)Nc4cc(C)on4)c(Cl)c3)c2cc1OC [Tivozanib] + C[C@]1(O)C[C@@H](c2nc(-c3ccc4ccc(-c5ccccc5)nc4c3)c3c(N)nccn32)C1 [Linsitinib] (partner 1 µM) 1.12

// each listed compound needs a value for relative viability
1. Nc1ccn([C@@H]2O[C@H](CO)[C@@H](O)[C@@H]2O)c(=O)n1 [Cytarabine] + Cc1nc(NC(=O)N2CCC[C@H]2C(N)=O)sc1-c1ccnc(C(C)(C)C(F)(F)F)c1 [Alpelisib] (partner 2 µM)
2. COc1cc2nccc(Oc3ccc(NC(=O)Nc4cc(C)on4)c(Cl)c3)c2cc1OC [Tivozanib] + Nc1nc2[nH]cc(CCc3ccc(C(=O)N[C@@H](CCC(=O)O)C(=O)O)cc3)c2c(=O)[nH]1 [Pemetrexed] (partner 0.2 µM)
3. Nc1ccn([C@@H]2O[C@H](CO)[C@@H](O)[C@@H]2O)c(=O)n1 [Cytarabine] + N=C(N)NC(=N)NCCc1ccccc1 [Phenformin] (partner 250 µM)

1. 0.888
2. 0.594
3. 0.56

// each listed compound needs a value for relative viability
1. COc1cc2nccc(Oc3ccc(NC(=O)Nc4cc(C)on4)c(Cl)c3)c2cc1OC [Tivozanib] + Cc1nc(NC(=O)N2CCC[C@H]2C(N)=O)sc1-c1ccnc(C(C)(C)C(F)(F)F)c1 [Alpelisib] (partner 2 µM)
2. Nc1ccn([C@@H]2O[C@H](CO)[C@@H](O)[C@@H]2O)c(=O)n1 [Cytarabine] + C[C@]1(O)C[C@@H](c2nc(-c3ccc4ccc(-c5ccccc5)nc4c3)c3c(N)nccn32)C1 [Linsitinib] (partner 1 µM)
3. COc1cc2nccc(Oc3ccc(NC(=O)Nc4cc(C)on4)c(Cl)c3)c2cc1OC [Tivozanib] + COc1cccc2cc(-c3nc([C@H]4CC[C@H](C(=O)O)CC4)n4ncnc(N)c34)[nH]c12 [OSI-027] (partner 0.5 µM)

1. 0.843
2. 1
3. 0.718

###

# System: NCI-H2347
# EXPERIMENT: relative viability (nuclei count vs DMSO), 5 days (fraction); higher = more cells survive
# APPLIED_CONDITIONS: first compound 0.01581 µM
For each record, write down the corresponding relative viability.
Give bare numbers.

Recorded relative viability of COc1cc2nccc(Oc3ccc(NC(=O)Nc4cc(C)on4)c(Cl)c3)c2cc1OC [Tivozanib] + CS(=O)(=O)CCNCc1ccc(-c2ccc3ncnc(Nc4ccc(OCc5cccc(F)c5)c(Cl)c4)c3c2)o1 [Lapatinib] (partner 2 µM) , please. 0.93

Turning now to a further record.
Recorded relative viability of COc1cc2nccc(Oc3ccc(NC(=O)Nc4cc(C)on4)c(Cl)c3)c2cc1OC [Tivozanib] + CC(C)C[C@H](NC(=O)[C@H](Cc1ccccc1)NC(=O)c1cnccn1)B(O)O [Bortezomib] (partner 0.002 µM) , please. 0.818
